Values were extracted from paper PMC9516332.

Would you mind telling me the reported inhibition at 1 µM of each entry?
tested_on: panel of 255 wild-type kinases (Homo sapiens)
Sequence (P49841 whole entry): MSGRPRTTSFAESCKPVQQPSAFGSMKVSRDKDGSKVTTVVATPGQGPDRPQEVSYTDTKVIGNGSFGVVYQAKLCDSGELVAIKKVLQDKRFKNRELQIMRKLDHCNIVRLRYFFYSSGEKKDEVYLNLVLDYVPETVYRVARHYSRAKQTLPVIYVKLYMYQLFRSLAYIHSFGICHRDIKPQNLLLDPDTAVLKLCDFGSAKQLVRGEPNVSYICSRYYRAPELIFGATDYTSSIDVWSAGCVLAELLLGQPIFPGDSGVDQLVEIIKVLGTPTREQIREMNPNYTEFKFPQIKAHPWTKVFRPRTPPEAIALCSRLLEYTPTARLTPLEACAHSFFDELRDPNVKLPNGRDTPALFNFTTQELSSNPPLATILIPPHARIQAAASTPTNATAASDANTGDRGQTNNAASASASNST
experiment_description: Kinase panel profiling at 1 µmol/L (MSA or IMAP), percentage inhibition
Assay type: biochemical
settings: kinase GSK3β; 1 µmol/L single concentration
Give bare numbers, in %.

The examples below pair each entry with its known result.
# smiles_str, measurement_unit, inhibition at 1 µM
rows = [
    ("CCN1C(=O)N(c2c(F)c(OC)cc(OC)c2F)Cc2cnc3[nH]c(CN4CCOCC4)cc3c21", "%", -7),
    ("C=CC(=O)N1CCC([C@@H]2CCNc3c(C(N)=O)c(-c4ccc(Oc5ccccc5)cc4)nn32)CC1", "%", -9),
    ("Cc1nc(NC(=O)N2CCC[C@H]2C(N)=O)sc1-c1ccnc(C(C)(C)C(F)(F)F)c1", "%", -4),
]

Q: Would you mind telling me what inhibition at 1 µM value was observed for FC(F)(F)c1ccc(CNc2ccc(Cc3c[nH]c4ncc(Cl)cc34)cn2)cn1 ?
Result: 4.44
